// values below are reported melting point

Example entries begin here.
[
  {
    "molecule": "OC1CCCc2nc3ccccc3c(NCc3cccc(C(F)(F)F)c3)c21 (stereo unspecified)",
    "melting point": "154 to 155 °C"
  },
  {
    "molecule": "Cc1ccc(C(=O)c2ccc(CC(=O)O)n2C)s1",
    "melting point": "152 to 154 °C"
  },
  {
    "molecule": "O=C(C=Cc1ccc2c(c1)OCO2)C1CC1",
    "melting point": "85 to 87 °C"
  },
  {
    "molecule": "O=C(NCCNC1CCC(c2ccc3[nH]c(=O)oc3c2)CC1)c1ccccc1 (stereo unspecified)",
    "melting point": "167 to 175 °C"
  }
]

# melting point of CN1CN(C)c2nc3n(Cc4ccc(F)cc4)c(=O)cc(O)n3c2C1=O = 214 to 232 °C

Cc1ccc(CCOCC(=O)O)cc1 has a reported melting point of 65 to 67 °C

###

quantity-measured: melting point

// known answers, use as guide
[
  {
    "compound": "O=[N+]([O-])c1ccc(OCc2ccc(C(F)(F)F)cc2)cc1",
    "melting point": "80.5 to 81.5 °C"
  },
  {
    "compound": "CCCn1cnc2c1c(=O)n(CCCCCC(C)=O)c(=O)n2C",
    "melting point": "69 to 70 °C"
  },
  {
    "compound": "CC(c1nnc2c(=O)[nH]c3cc(C(F)(F)F)c(Br)cc3n12)P(=O)(O)O (stereo unspecified)",
    "melting point": "> 300 °C"
  },
  {
    "compound": "CN(c1cccc2cc(C3=NCC(C)(CN4CCOCC4)S3)[nH]c12)S(=O)(=O)c1cccs1 (stereo unspecified)",
    "melting point": "146 to 147 °C"
  },
  {
    "compound": "O=C(O)CN(CCN(CC(=O)O)CC(=O)O)CCN(CC(=O)O)CC(=O)NCCC(O)(P(=O)(O)O)P(=O)(O)O",
    "melting point": "145 °C"
  },
  {
    "compound": "CCCCCCc1c(C(C)C)nc(C(C)C)c(CO)c1-c1ccccc1",
    "melting point": "71 to 72 °C"
  },
  {
    "compound": "CC(=O)OC[C@@H]1CCCN1C(c1ccccc1)(c1ccccc1)c1ccccc1Cl",
    "melting point": "102 to 104 °C"
  },
  {
    "compound": "CCCCCCCC[C@H](O)C(=O)O",
    "melting point": "70 to 72 °C"
  },
  {
    "compound": "COc1ccc(-c2nc(SCc3cccc(CSc4ncnc5nc[nH]c45)c3)[nH]c2-c2ccc(OC)cc2)cc1",
    "melting point": "129 to 130 °C"
  },
  {
    "compound": "Cc1ccc(OC(=O)N2CCC[C@H]2C(=O)O)cc1",
    "melting point": "76 to 77 °C"
  }
]

Note to self: melting point recorded for CCOC(=O)COCCN(C)C(=O)c1c(-c2ccc(C(C)(C)C)cc2)n(C)n(-c2ccc(C#N)cc2)c1=O was 192 to 194 °C

The reported melting point of the compound CN(c1cccc2cc(C3=NCC4(CCN(CC(N)=O)CC4)S3)[nH]c12)S(=O)(=O)c1cccs1 was 226 °C

Per the records, this compound ( CCCC(=O)C(=CNc1ccccc1COC(=O)c1ccccc1)C(=O)OCC ) has melting point equal to 78 to 82 °C

Sample O=C(Nc1cnccn1)Nc1cccc2c1C1CC3(CCN1C2=O)SCCS3 (stereo unspecified) ; melting point observed: 236 °C

Entry OCCOc1ccc(O)c(Cl)c1 — recorded melting point = 76 to 82 °C

# melting point of O=C(C1=CCCCC1)c1cc(-c2ccccc2)no1 = 70 to 71 °C

melting point for N#CC1=C(C2CCCC2)Nc2n[nH]cc2C1c1ccccc1Cl (stereo unspecified) is 225 °C

Data point: Oc1ccc(N2CCN(Cc3nc4ccccc4[nH]3)CC2)cc1 ; melting point = 206 to 209 °C

Item: S=C(NCC1CCCCC1)NCC1CCCCC1 | melting point: 124 to 125 °C

Quick note, melting point for COc1ccccc1C1CCC(=O)CC1(O)C(=O)O (stereo unspecified) landed at 204 °C

Item: CC(=O)NC1=C(O)CC(C(=O)N(C)C)CC1=O (stereo unspecified) | melting point: 162 to 164 °C
